# EXPERIMENTAL TARGET: T1, ARHGAP21, Q5T5U3
# T1 sequence (Q5T5U3 45-169, limits assumed, looked up): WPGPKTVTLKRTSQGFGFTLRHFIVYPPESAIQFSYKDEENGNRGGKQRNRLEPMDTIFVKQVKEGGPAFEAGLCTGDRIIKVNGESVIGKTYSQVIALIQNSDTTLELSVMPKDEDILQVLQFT
# METHOD: holdup assay
# Set-up: key: below the threshold = too weak to quantify, mostly under pKd 3.1 to 4
# COND: plain residues with an end cap or a label only (N-terminal biotin on a linker: ado-ado)

# BINDER, pKd
records = [
    ("QLSFNTDTLC [ABCA2, Q9BZC7]", "below the threshold"),
    ("IDESKKEWLI [CNTNAP2, Q9UHC6]", "below the threshold"),
    ("SVTSERETNI [SLC16A7, O60669]", "below the threshold"),
]

The measured values listed here are drawn from paper PMC9482650.
